All figures here come from ChEMBL document CHEMBL5705895.

Molecular target: Transient receptor potential cation channel subfamily A member 1 (Macaca mulatta)
Sequence (A0A1D5QMT1 whole entry): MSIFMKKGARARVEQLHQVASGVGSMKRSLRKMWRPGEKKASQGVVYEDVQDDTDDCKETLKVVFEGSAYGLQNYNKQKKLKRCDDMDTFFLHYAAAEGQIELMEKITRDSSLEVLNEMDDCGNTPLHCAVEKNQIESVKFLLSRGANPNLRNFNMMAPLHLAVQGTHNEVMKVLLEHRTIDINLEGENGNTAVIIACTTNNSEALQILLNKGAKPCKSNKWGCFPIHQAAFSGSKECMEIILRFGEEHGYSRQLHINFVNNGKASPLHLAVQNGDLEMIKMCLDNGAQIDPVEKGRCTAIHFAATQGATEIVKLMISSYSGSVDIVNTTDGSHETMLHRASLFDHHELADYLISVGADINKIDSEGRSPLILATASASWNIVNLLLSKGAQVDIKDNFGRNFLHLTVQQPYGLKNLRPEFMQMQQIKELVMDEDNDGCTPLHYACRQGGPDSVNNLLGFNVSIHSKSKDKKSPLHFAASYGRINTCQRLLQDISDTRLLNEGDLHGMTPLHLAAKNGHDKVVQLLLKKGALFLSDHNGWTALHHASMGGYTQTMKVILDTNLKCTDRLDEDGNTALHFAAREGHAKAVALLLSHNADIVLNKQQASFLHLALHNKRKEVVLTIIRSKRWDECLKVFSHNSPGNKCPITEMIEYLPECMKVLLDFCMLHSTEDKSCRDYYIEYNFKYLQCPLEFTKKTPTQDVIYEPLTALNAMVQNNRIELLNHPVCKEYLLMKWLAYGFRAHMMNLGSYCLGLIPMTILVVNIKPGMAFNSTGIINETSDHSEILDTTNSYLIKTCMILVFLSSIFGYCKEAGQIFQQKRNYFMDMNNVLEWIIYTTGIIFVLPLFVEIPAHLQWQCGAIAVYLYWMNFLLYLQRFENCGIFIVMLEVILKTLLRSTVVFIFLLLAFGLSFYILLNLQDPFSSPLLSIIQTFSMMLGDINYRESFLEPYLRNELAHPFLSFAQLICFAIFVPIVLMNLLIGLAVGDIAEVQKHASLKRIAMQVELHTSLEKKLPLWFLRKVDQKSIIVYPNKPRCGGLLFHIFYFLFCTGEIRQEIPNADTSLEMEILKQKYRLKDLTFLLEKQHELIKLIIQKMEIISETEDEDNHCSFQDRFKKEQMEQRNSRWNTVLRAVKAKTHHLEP
Assay: Agonist activity at rhesus monkey TRPA1 transfected in HEK293F cells assessed as increase in Ca2+ influx by FLIPR calcium assay
pEC50: −log10 of the molar value.
This section presents molecules with their documented pEC50 values.

Below: 4 molecules and their reported pEC50.
CC(C)=CCC/C(C)=C/CC/C(C)=C/CSc1ccccc1C(=O)O [SALIRASIB] : 3.78
O=C/C=C/c1ccccc1 : 4.62
CCCCC/C=C/C=C1/C(=O)C=C[C@@H]1C/C=C\CCCC(=O)O : < 4.00
NC(=O)c1cccc(-c2cccc(OC(=O)NC3CCCCC3)c2)c1 [URB-597] : < 4.00

stdin: Please give the measured pEC50 for this molecule: CC1CCC(C(C)C)C(O)C1 (stereo unspecified) [MENTHOL]
stdout: < 3.52

stdin: Quick one: CCCCCC(O)/C=C/C=O (stereo unspecified) [4-HYDROXYNON-2-ENAL]
stdout: < 4.00
